- measurement-target: Acetyl-CoA carboxylase 1 (Rattus norvegicus)
- method-summary: Inhibitory concentration against rat heart ACC by the carboxylation of acetyl-CoA with [14C]HCO3- to form [14C]-malonyl CoA
test-readout: IC50

Ask | Request: IC50, test system Acetyl-CoA carboxylase 1 (Rattus norvegicus), entry C=CCO/N=C(\CCC)C1=C(O)C(C(=O)OC)C(C)(C)CC1=O (stereo unspecified)
Reply | > 100 µM
